# key: entry, value: % Inhibition of OCT2-dependent MPP+ uptake at 200 µM (mean ± SEM)
- target-desc: OCT2 (Homo sapiens, UniProt O15244)
- Sequence (O15244 whole entry): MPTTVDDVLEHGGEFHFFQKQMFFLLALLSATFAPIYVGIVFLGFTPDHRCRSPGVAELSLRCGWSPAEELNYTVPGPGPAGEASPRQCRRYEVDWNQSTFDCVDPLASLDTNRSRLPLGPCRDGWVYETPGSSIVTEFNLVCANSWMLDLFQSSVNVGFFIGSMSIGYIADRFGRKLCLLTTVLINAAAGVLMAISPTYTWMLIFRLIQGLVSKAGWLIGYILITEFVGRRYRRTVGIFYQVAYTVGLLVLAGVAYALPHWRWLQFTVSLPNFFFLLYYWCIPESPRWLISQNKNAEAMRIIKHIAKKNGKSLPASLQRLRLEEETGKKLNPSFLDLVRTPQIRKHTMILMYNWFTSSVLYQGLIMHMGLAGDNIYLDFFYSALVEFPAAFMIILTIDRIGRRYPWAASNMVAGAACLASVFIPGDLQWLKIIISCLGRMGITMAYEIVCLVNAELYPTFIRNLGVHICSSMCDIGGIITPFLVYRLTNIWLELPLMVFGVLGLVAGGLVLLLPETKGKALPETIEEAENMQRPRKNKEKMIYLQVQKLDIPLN
- assay-text: Inhibition of OCT2-mediated [3H]MPP+ uptake in HEK-OCT2 cells
- condition: test drug 200 µM; MPP+ 50 μM; 3 min; net uptake HEK-OCT2 minus HEK-VC
# output: number + unit

>  <molecule>
Cc1ccc(-c2ncc(Cl)cc2-c2ccc(S(C)(=O)=O)cc2)cn1 [Etoricoxib]

>  <recorded-result>
72.4 ± 2.2%

$$$$

What the record says about CCOc1ccccc1OCCN[C@H](C)Cc1ccc(OC)c(S(N)(=O)=O)c1 [Tamsulosin] : % Inhibition of OCT2-dependent MPP+ uptake at 200 µM (mean ± SEM) is 65.7 ± 2.9%

# % Inhibition of OCT2-dependent MPP+ uptake at 200 µM (mean ± SEM) of CCC(=O)C(CC(C)N(C)C)(c1ccccc1)c1ccccc1 (stereo not drawn) [Methadone] = 68.7 ± 3.8%

* * *

- target-desc: OCT2 (Homo sapiens, UniProt O15244)
- assay-text: in vitro
- condition: human, pH 7.3
Each item that follows carries a reported % Inhibition of OCT2-dependent MF uptake at 200 µM (mean ± SEM).
Returns: string containing the numeric result and its unit.

Just so you know, measured % Inhibition of OCT2-dependent MF uptake at 200 µM (mean ± SEM) for CC(=O)N[C@@H](CS)C(=O)O came out at 11.0 ± 9.4%

The molecule listed as CC(=O)Oc1ccccc1C(=O)O has a reported % Inhibition of OCT2-dependent MF uptake at 200 µM (mean ± SEM) of 1.3 ± 8.9%

% Inhibition of OCT2-dependent MF uptake at 200 µM (mean ± SEM) recorded for this molecule, NC(=O)N1c2ccccc2C=Cc2ccccc21 [Carbamazepine] , is 83.8 ± 1.2%

Entry O=C1CCc2ccc(OCCCCN3CCN(c4cccc(Cl)c4Cl)CC3)cc2N1 ; % Inhibition of OCT2-dependent MF uptake at 200 µM (mean ± SEM) = 82.0 ± 6.7%

The recorded % Inhibition of OCT2-dependent MF uptake at 200 µM (mean ± SEM) for entry CN(C)CC/C=C1/c2ccccc2Sc2ccc(Cl)cc21 equals 98.4 ± 0.9%

// % Inhibition of OCT2-dependent MF uptake at 200 µM (mean ± SEM) lookup, molecule = CO/N=C(\C(=O)N[C@@H]1C(=O)N2C(C(=O)O)=C(COC(N)=O)CS[C@H]12)c1ccco1 , result: 50.3 ± 11.6%

Form: molecule = CC1(C)S[C@@H]2[C@H](NC(=O)[C@H](N)c3ccc(O)cc3)C(=O)N2[C@H]1C(=O)O ; % Inhibition of OCT2-dependent MF uptake at 200 µM (mean ± SEM) = 4.5 ± 5.1%

* * *

- target-desc: OCT2 (Homo sapiens)
- assay-text: in vitro
- condition: human, pH 7.3
observable: % Inhibition of OCT2-dependent MF uptake at 20 µM (mean ± SEM) (%)
I only need the number, in %, no unit after it.

Sample answers from the record:
>  <molecule>
CC(=O)Oc1ccccc1C(=O)O

>  <unit-of-measure>
%

>  <recorded-result>
-18.7

$$$$
>  <molecule>
NC(=O)N1c2ccccc2C=Cc2ccccc21 [Carbamazepine]

>  <unit-of-measure>
%

>  <recorded-result>
0.2

$$$$

Consider the record given below.
Item CC(C)NCC(O)COc1ccc(COCCOC(C)C)cc1 (stereo not drawn) ; assay system OCT2 (Homo sapiens); % Inhibition of OCT2-dependent MF uptake at 20 µM (mean ± SEM) reported as 57.2

* * *

- target-desc: OCT2 (Homo sapiens, UniProt O15244)
- assay-text: in vitro
- condition: human, pH 7.3
observable: log10(IC50) (log10 of the value in µM)
Log scale reminder: IC50 in µM, then log10 taken.

>  <compound>
CN(C)CCC=C1c2ccccc2CCc2ccccc21 [Amitriptyline]

>  <log10(IC50)>
-0.29

$$$$

Record Cc1c(OCC(F)(F)F)ccnc1C[S+]([O-])c1nc2ccccc2[nH]1 (centres unmarked) [Lansoprazole] . Reported log10(IC50): 0.52

In plain terms, O=C(O[C@H]1C[C@H]2CC[C@@H](C1)[N+]21CCCC1)C(O)(c1ccccc1)c1ccccc1 [Trospium chloride] has a documented log10(IC50) of -1.15

The measured log10(IC50) associated with CC(CN(C)C)CN1c2ccccc2CCc2ccccc21 (centres unmarked) [Trimipramine] reads -0.36

Noted for CN(C)CCC=C1c2ccccc2COc2ccccc21 [Doxepin] : its log10(IC50) reads -0.60
